- Test system: HCC-2998
- run.description: NCI human tumor cell panel: HCC-2998 (Colon Cancer)
- Type: cell-based
- stated.conditions: HCC-2998, Colon Cancer, read-out: Log10 GI50 (converted)
Documented GI50 across a set of molecules
experimental.readout: GI50 (µM)

>>> df
                              record_smiles  experimental_readout  recorded_result
0  O=Cc1ccc(-c2ccc(-c3ccc(C=O)[se]3)[se]2)[se]1                  GI50             4.79
1         O=Cc1ccc(-c2ccc(-c3cccs3)[se]2)s1                  GI50            0.234
2   O=Cc1ccc(-c2ccc(-c3ccc[se]3)[se]2)[se]1                  GI50             2.51
3          OCc1ccc(-c2ccc(-c3cccs3)[se]2)s1                  GI50            0.257
4    O=Cc1ccc(-c2ccc(-c3ccc(C=O)s3)[se]2)s1                  GI50             2.34

----------
Documented IC (TGI) across a set of compounds
- Tested on: OVCAR-4
- run.description: NCI human tumor cell panel: OVCAR-4 (Ovarian Cancer)
- Format: cell-based
- stated.conditions: OVCAR-4, read-out: Log10 TGI (converted)
experimental.readout: IC (TGI) (µM)

>>> df
                              record_smiles  experimental_target  value_unit  result_modifier  recorded_result
0    OCc1ccc(-c2ccc(-c3ccc[se]3)[se]2)[se]1              OVCAR-4          µM                =             12.3
1      OCc1ccc(-c2ccc(-c3ccc(CO)s3)[se]2)s1              OVCAR-4          µM                >              100
2  OCc1ccc(-c2ccc(-c3ccc(CO)[se]3)[se]2)[se]1              OVCAR-4          µM                =             6.92
3       OCc1ccc(-c2ccc(-c3ccc[se]3)s2)[se]1              OVCAR-4          µM                >              100

----------
- Test system: HOP-62
- run.description: NCI human tumor cell panel: HOP-62 (Non-Small Cell Lung Cancer)
- Format: cell-based
- stated.conditions: HOP-62, Non-Small Cell Lung Cancer, read-out: Log10 GI50 (converted)
experimental.readout: GI50 (µM)

                                   compound  experimental_readout  recorded_result
0  O=Cc1ccc(-c2ccc(-c3ccc(C=O)[se]3)[se]2)[se]1 [NSC 675245]                  GI50             51.3
1  O=Cc1ccc(-c2ccc(-c3ccc[se]3)[se]2)[se]1 [NSC 675244]                  GI50               12
2  OCc1ccc(-c2ccc(-c3cccs3)[se]2)s1 [NSC 675344]                  GI50             34.7
3  O=Cc1ccc(-c2ccc(-c3ccc(C=O)s3)[se]2)s1 [NSC 675345]                  GI50             47.9
4  O=Cc1ccc(-c2ccc(-c3cccs3)[se]2)s1 [NSC 675346]                  GI50             64.6

----------
Documented GI50 across a set of compounds
- System: UO-31
- run.description: NCI human tumor cell panel: UO-31 (Renal Cancer)
- Format: cell-based
- stated.conditions: UO-31, read-out: Log10 GI50 (converted)
experimental.readout: GI50

                              record_smiles  recorded_result
0    OCc1ccc(-c2ccc(-c3ccc[se]3)[se]2)[se]1          6.17 µM
1      OCc1ccc(-c2ccc(-c3ccc(CO)s3)[se]2)s1         > 100 µM
2   OCc1ccc(-c2ccc(-c3ccc(CO)[se]3)s2)[se]1         > 100 µM
3       OCc1ccc(-c2ccc(-c3ccc[se]3)s2)[se]1         > 100 µM
4  OCc1ccc(-c2ccc(-c3ccc(CO)[se]3)[se]2)[se]1          5.25 µM
5    O=Cc1ccc(-c2ccc(-c3ccc(C=O)[se]3)s2)s1         > 100 µM
6      OCc1ccc(-c2ccc(-c3ccc(CO)[se]3)s2)s1         > 100 µM

----------
Documented log10 of GI50 across a set of compounds
- Tested on: OVCAR-5
- run.description: NCI human tumor cell panel: OVCAR-5 (Ovarian Cancer)
- Type: cell-based
- stated.conditions: OVCAR-5, read-out: Log10 GI50 (converted)
experimental.readout: log10 of GI50 (log10 of the value in nM)

>>> df
                              record_smiles  experimental_readout  recorded_result
0   OCc1ccc(-c2ccc(-c3ccc(CO)[se]3)s2)[se]1         log10 of GI50             1.12
1    O=Cc1ccc(-c2ccc(-c3ccc(C=O)[se]3)s2)s1         log10 of GI50             2.09
2    OCc1ccc(-c2ccc(-c3ccc[se]3)[se]2)[se]1         log10 of GI50             2.26
3       OCc1ccc(-c2ccc(-c3ccc[se]3)s2)[se]1         log10 of GI50             1.50
4  OCc1ccc(-c2ccc(-c3ccc(CO)[se]3)[se]2)[se]1         log10 of GI50             3.12
5      OCc1ccc(-c2ccc(-c3ccc(CO)[se]3)s2)s1         log10 of GI50             1.36
6      OCc1ccc(-c2ccc(-c3ccc(CO)s3)[se]2)s1         log10 of GI50             2.20

----------
- System: IGROV1
- run.description: NCI human tumor cell panel: IGROV1 (Ovarian Cancer)
- Format: cell-based
- stated.conditions: IGROV-1, IGROV1, Ovarian Cancer, read-out: Log10 GI50 (converted)
Documented GI50 across a set of molecules
experimental.readout: GI50 (nM)

                                   molecule  experimental_target  value_unit  recorded_result
0  O=Cc1ccc(-c2ccc(-c3ccc(C=O)[se]3)[se]2)[se]1 [NSC 675245]               IGROV1          nM            67600
1  O=Cc1ccc(-c2ccc(-c3ccc(C=O)s3)[se]2)s1 [NSC 675345]               IGROV1          nM             4370
2  O=Cc1ccc(-c2ccc(-c3ccc[se]3)[se]2)[se]1 [NSC 675244]               IGROV1          nM             3310
3  OCc1ccc(-c2ccc(-c3cccs3)[se]2)s1 [NSC 675344]               IGROV1          nM             12.3
4  O=Cc1ccc(-c2ccc(-c3ccc(C=O)[se]3)s2)[se]1 [NSC 676630]               IGROV1          nM             1480
5  O=Cc1ccc(-c2ccc(-c3cccs3)[se]2)s1 [NSC 675346]               IGROV1          nM              162

----------
- System: CCRF-CEM
- run.description: NCI human tumor cell panel: CCRF-CEM (Leukemia)
- Assay type: cell-based
- stated.conditions: read-out: Log10 GI50 (converted)
Documented GI50 across a set of compounds
experimental.readout: GI50 (µM)

>>> print(df.to_string())
                                   compound  experimental_target  experimental_readout  result_modifier  recorded_result
0  O=Cc1ccc(-c2ccc(-c3ccc(C=O)[se]3)s2)s1 [compound 688829]             CCRF-CEM                  GI50                =             7.94
1  OCc1ccc(-c2ccc(-c3ccc(CO)[se]3)s2)s1 [compound 688830]             CCRF-CEM                  GI50                =             25.7
2  OCc1ccc(-c2ccc(-c3ccc[se]3)s2)[se]1 [compound 676631]             CCRF-CEM                  GI50                >              100
3  OCc1ccc(-c2ccc(-c3ccc(CO)s3)[se]2)s1 [compound 675343]             CCRF-CEM                  GI50                =             22.4
4  OCc1ccc(-c2ccc(-c3ccc(CO)[se]3)s2)[se]1 [compound 676632]             CCRF-CEM                  GI50                =             87.1
5  OCc1ccc(-c2ccc(-c3ccc(CO)[se]3)[se]2)[se]1 [compound 675247]             CCRF-CEM                  GI50                =             3.39
6  OCc1ccc(-c2ccc(-c3ccc[se]3)[se]2)[se]1 [compound 675246]             CCRF-CEM                  GI50                =             3.16
